Test system: HCC-2998 colon
Test: NCI-60 one-dose screen, 48 h
Conditions: 10 µM unless noted
Method: Growth inhibition of the HCC-2998 human tumor cell line is measured as a screen for anti-cancer activity. Cells are grown in 96 well plates and exposed to the test compound for 48 hours. Compounds are tested at a single concentration, which is 10^-5 M for most compounds. The reported endpoint is percent growth (GI% or GIPRCNT), where numbers from 0 - 100% represent growth inhibition, and numbers from -100% - 0 represent cell death. For example, a value of 40 represents 60% growth inhibition. […]
About 83,000 compounds went through this panel and 20% of them were active in at least one assay; those are over-represented in the sample as a whole. Calls of active or inactive are those of the source. How the source made its calls: active means growth percent below 10; inactive means the rest.
Please reply with one of these outcomes: active, inactive

Reference set, count: 2
smiles_representation	label_class
O=C(Nc1ccc(NC(=O)c2cc(=O)[nH]c3ccccc23)cc1)Nc1cccc(Cl)c1	inactive
CNC(=O)c1cc(Cn2nc(C)c(NC(=O)Nc3ccc(Cl)c(C(F)(F)F)c3)c2C)ccn1	inactive

Input line: Returns: the outcome recorded for O=C(O)c1ccc(NCc2cn(-c3ccc(C(F)(F)F)cc3)nc2-c2ccc(C(=O)O)cc2)cc1 in this assay.
Output line: inactive

Input line: Entry to check: COc1c(Cl)c2c(c(OC)c1OC)-c1ccc(SC)c(=O)cc1[C@@H](NC(=O)OCC(F)(F)F)CC2
Output line: inactive

* * *

Reported growth by item:
tested on: SF-539 CNS; assay: NCI-60 one-dose screen, 48 h (100 = growth as untreated, 0 = no growth, -100 = all killed); details: 10 µM unless noted
The panel holds about 83,000 compounds, 20% with a hit somewhere; the sample as a whole holds those more often.
Record the value in %, omitting the unit from your answer.

Example results:
smiles_representation	assayed_target	test_result
CCOC(=O)C1=C(C)NC(SCc2cc(=O)oc3ccc(F)cc23)=N[C@@H]1c1cccc2ccccc12	SF-539 CNS	114
CCCOc1ccc(/C=N/Nc2cc(C)nc3ccc(Cl)cc23)cc1	SF-539 CNS	-62.6
CCCOC(=O)N[C@H]1CCc2c(Cl)c(OC)c(OC)c(OC)c2-c2ccc(SC)c(=O)cc21	SF-539 CNS	3.18
O=S(=O)(NCCCNc1nccc(-c2c(-c3cccc(F)c3)nc3sccn23)n1)c1cccc(F)c1	SF-539 CNS	86.4
Cn1ccnc1C(=O)/C=C/c1ccc(CC(=O)Nc2ccc(Cl)cc2)cc1	SF-539 CNS	-35.2
Cc1cc2c(c(C)c1Cl)C(=O)/C(=C/c1ccc(O)c(O)c1)O2	SF-539 CNS	100
O=C1c2c(c3c4cccc(F)c4[nH]c3c3ccc4ccccc4c23)C(=O)N1O	SF-539 CNS	40.4
Cc1cnc(C(=O)Nc2nc3ccc(S(=O)(=O)Nc4ccc(C(C)(C)C)cc4)cc3[nH]2)cn1	SF-539 CNS	-33.6

Consider the record given below.
Input line: Any idea what its growth is? The molecule is COc1cccc2c1c1nc3cc(C)c(C)cc3nc1n2CCN(C)C
Output line: 23.2

* * *

tested on: MCF7 breast; assay: NCI-60 one-dose screen, 48 h; conditions: 10 µM unless noted
About 83,000 compounds went through this panel and 20% of them were active in at least one assay; those are over-represented in the sample as a whole. The source made the active and inactive calls. The calls were made as follows: active = growth percent below 10; inactive = the rest.
Please reply with one of these outcomes: active, inactive

Reference set, count: 3
smiles_representation	label_class
CCCOc1ccc(/C=N/Nc2cc(C)nc3ccc(Cl)cc23)cc1	active
Nc1n[nH]c2cccc(C#Cc3cccc(C(=O)Nc4cccc(C(F)(F)F)c4)c3)c12	inactive
COc1cc2c(c(O)c1Br)C(=O)c1c(O)cc(C[C@H](C)O)cc1[C@H]2[C@H]1c2cc(C[C@H](C)O)cc(O)c2C(=O)c2c1cc(OC)c(Br)c2O	active

Input line: Returns: the outcome recorded for O=C1c2c(c3c4cccc(F)c4[nH]c3c3ccc4ccccc4c23)C(=O)N1O in this assay.
Output line: inactive

* * *

tested on: MCF7 breast; experiment: NCI-60 one-dose screen, 48 h; settings: 10 µM unless noted
This is part of a sample that, as a whole, favours compounds with a hit. Of some 83,000 tested, about 20% had one in any assay. Calls of active or inactive are those of the source. Rule for the calls: active = growth percent below 10; inactive = the rest.
Please reply with one of these outcomes: active, inactive

Reference set, count: 5
compound	label_class
CCOC(=O)Nc1ccc(-c2ccc3c(c2)NC(=O)/C3=C\c2ccc[nH]2)cc1	inactive
Cc1cc2nc3c4cc(C=O)ccc4n(CCN(C)C)c3nc2cc1C	active
COC1=CC(=O)c2ccccc2C1=O	inactive
COC(=O)CNC(=O)[C@]12CCC(C)(C)C[C@H]1C1=CC[C@@H]3[C@@]4(C)Cc5c([nH]c6ccccc56)C(C)(C)[C@@H]4CC[C@@]3(C)[C@]1(C)CC2	inactive
N#C/C(=C\c1ccccn1)c1nc2cc(Cl)ccc2s1	inactive

Input line: Returns: the outcome recorded for CC(=O)Oc1ccc(/C=N/NC(N)=S)nc1 in this assay.
Output line: inactive

Input line: Entry to check: CCCCCN1C=C/C(=C\C(=O)n2ccc3ccccc32)c2ccccc21
Output line: inactive

Input line: Entry to check: O=C(/C=C/c1ccc(Cl)cc1)c1ccc(NC(=O)N2CCN(c3cc4c(cc3F)c(=O)c(C(=O)O)cn4C3CC3)CC2)cc1
Output line: inactive

Input line: Entry to check: CCN(CC)CCOc1ccc(NC(=O)C(C(C)C)N2C(=O)/C(=C/c3ccc(Br)cc3)SC2=S)cc1 (centres undefined)
Output line: inactive

* * *

system: SK-MEL-5 melanoma; assay: NCI-60 one-dose screen, 48 h (100 = growth as untreated, 0 = no growth, -100 = all killed); settings: 10 µM unless noted
This is part of a sample that, as a whole, favours compounds with a hit. Of some 83,000 tested, about 20% had one in any assay.
Threshold 50%: growth strictly smaller gives 1, otherwise -1.

Reference set, count: 7
smiles_representation	label_class
CCOc1ccc(/C=N/Nc2cc(C)nc3ccc(Br)cc23)cc1	-1
C#CCNC(=O)c1cccc2c1cc(C)n2-c1nc2c(c(NCc3ccccc3)n1)CCCC2	1
COc1ccc(Cc2cnc(NC(=O)c3ccc4c(c3)OCCO4)s2)cc1	1
Cc1nc2sccn2c1-c1nc2sccn2c1/C=C1/C(=O)Nc2ccccc21	1
N#Cc1c(-c2ccccc2)nc2c(c(-c3ccccc3)nn2-c2ccccc2)c1-c1ccc(O)cc1	-1
O=[N+]([O-])c1cc(Br)c2cccc3c2c1CC3	-1
c1ccc(-c2c(-c3ccccc3)[n+](Cc3ccc4ccccc4c3)c(-c3cccc4ccccc34)n2Cc2ccc3ccccc3c2)cc1	1

Input line: I wonder whether Cc1cccc(-c2cn3ccnc3c(-c3ccc4ncn(Cc5ccccc5)c4c3)n2)c1 has growth below 50%. Can you tell?
Output line: -1

* * *

tested on: HOP-62 NSCLC; experiment: NCI-60 one-dose screen, 48 h (100 = growth as untreated, 0 = no growth, -100 = all killed); conditions: 10 µM unless noted
This is part of a sample that, as a whole, favours compounds with a hit. Of some 83,000 tested, about 20% had one in any assay.
endpoint_label: growth (%)
Record the value in %, omitting the unit from your answer.

molecule	growth / %
C=C1C(=O)O[C@H]2[C@H]1CC/C(COC(=O)NCC(C)c1ccc(CC(C)C)cc1)=C\CC[C@@]1(C)O[C@@H]21 (some centres not stated)	82.2
CCSCC1CC(O)(c2ccccc2)CC(c2ccc(F)cc2)O1 (configuration not stated)	26.2
O=[N+]([O-])c1ccc(N=Nc2cc(S(=O)(=O)O)c3cccc(S(=O)(=O)O)c3c2O)cc1	107

Input line: Any idea what its growth is? The molecule is Oc1ccc(C2c3ccccc3Oc3ccccc32)c2cccnc12
Output line: 19.8

Input line: Entry to check: COc1ccc(/C=C/c2nc(Nc3ccc(S(=O)(=O)NC(C)=O)cc3)c3ccccc3n2)cc1
Output line: 81.2

Input line: Entry to check: Brc1ccc(Nc2csc(-c3ccccn3)n2)cc1
Output line: 88.2

Input line: Entry to check: NC(=NCCCOc1ccc(F)cc1)Nc1ccc(Cl)cc1
Output line: 46.6

Input line: Entry to check: CC(=O)Nc1cccc(-c2ccc3c(c2)NC(=O)/C3=C\c2ccc[nH]2)c1
Output line: 55.3

Input line: Entry to check: Cn1cc(-c2nc(-c3c[nH]c4c(Cl)nccc34)cs2)c2cc(F)ccc21
Output line: 88.5

Input line: Entry to check: CN[C@@H](C)C(=O)N[C@H]1CCS[C@H]2CC(C)(C)[C@@H](C(=O)N[C@H]3c4ccccc4C[C@H]3OCC#CC#CCO[C@@H]3Cc4ccccc4[C@@H]3NC(=O)[C@H]3N4C(=O)[C@@H](NC(=O)[C@H](C)NC)CCS[C@H]4CC3(C)C)N2C1=O
Output line: 66.8

Input line: Entry to check: COc1ccc(Cc2cnc(NC(=O)c3ccc4c(c3)OCCO4)s2)cc1
Output line: 29.1

Input line: Entry to check: CCN1CCN(CCNc2nccc(-c3c(-c4cccc(OC)c4)nc4occn34)n2)S1(=O)=O
Output line: 129

Input line: Entry to check: COc1ccc(CC(C)=C(c2ccc(OCCN3CCCCCC3)cc2)c2ccc(OCCN3CCCCCC3)cc2)cc1
Output line: -77.4

Input line: Entry to check: COc1ccc(-c2nc3sccn3c2/C=C/C(=O)c2ccc3c(c2)OCO3)cc1
Output line: 97.5

Input line: Entry to check: COC(=O)/C=C1\S/C(=N\NC(=O)c2cc3ccc2/C=C\c2ccc(cc2)/C=C\3)N(c2ccccc2)C1=O
Output line: 3

Input line: Entry to check: COc1cc2c(c(OC)c1OC)CCC(c1cccc(NC(=O)c3cccc(Br)c3)c1)O2 (configuration not stated)
Output line: 99.8
